Recorded IC50, one value per entry.
# TESTED_ON: human DGKζ (Homo sapiens, UniProt Q13574)
# Construct: TVMV protease cleavage site (C); Hexa-His (C); made in house; host or cells: Sf9 insect cells (baculovirus, Bac-to-Bac)
# Sequence (Q13574 with tags, fused parts or gaps isoform Q13574-4): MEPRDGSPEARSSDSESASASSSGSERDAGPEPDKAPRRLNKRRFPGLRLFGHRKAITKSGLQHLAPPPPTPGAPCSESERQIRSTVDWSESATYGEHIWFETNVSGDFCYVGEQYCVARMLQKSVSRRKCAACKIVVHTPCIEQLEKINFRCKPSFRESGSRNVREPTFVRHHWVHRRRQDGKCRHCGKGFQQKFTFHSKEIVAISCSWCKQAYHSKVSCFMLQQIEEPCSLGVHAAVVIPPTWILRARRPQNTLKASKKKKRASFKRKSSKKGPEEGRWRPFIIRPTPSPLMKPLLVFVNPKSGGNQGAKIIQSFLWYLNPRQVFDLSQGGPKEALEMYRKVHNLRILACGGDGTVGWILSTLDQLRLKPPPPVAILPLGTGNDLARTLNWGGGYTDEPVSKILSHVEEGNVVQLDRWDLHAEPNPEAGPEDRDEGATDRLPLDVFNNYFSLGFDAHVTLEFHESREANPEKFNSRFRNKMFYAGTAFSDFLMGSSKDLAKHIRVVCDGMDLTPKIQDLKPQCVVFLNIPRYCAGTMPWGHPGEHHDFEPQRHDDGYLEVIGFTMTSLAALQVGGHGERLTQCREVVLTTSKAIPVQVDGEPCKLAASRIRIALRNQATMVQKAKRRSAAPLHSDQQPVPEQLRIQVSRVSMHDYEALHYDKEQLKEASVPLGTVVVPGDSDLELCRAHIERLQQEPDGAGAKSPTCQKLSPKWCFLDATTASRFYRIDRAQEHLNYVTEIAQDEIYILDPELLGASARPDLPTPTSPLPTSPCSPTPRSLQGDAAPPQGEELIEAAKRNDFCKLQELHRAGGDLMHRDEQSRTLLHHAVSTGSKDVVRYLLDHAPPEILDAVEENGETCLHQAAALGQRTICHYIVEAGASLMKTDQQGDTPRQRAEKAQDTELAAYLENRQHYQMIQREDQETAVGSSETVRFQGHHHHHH
# EXPERIMENT_SUMMARY: DGKζ LIPGLO assay (extruded liposome substrate), in vitro DGK inhibition
# Format: biochemical
# TEST_CONTEXT: liposome (LIPGLO) assay; read-out: DGKz LIPGLO IC50

COMPOUND	TESTED_ON	IC50 [µM]
Cn1c(=O)cc(N2CCN(C(c3ccc(F)cc3)c3ccc(F)cc3)CC2c2ccccc2)c2nc(C#N)ccc21 (single isomer, unassigned) [Example 156]	human DGKζ (Homo sapiens, UniProt Q13574)	9.8
CC(c1ccc(OC(F)(F)F)cc1F)N1C[C@H](C)N(c2cc(=O)n(C)c3ccc(C#N)nc23)C[C@H]1C (single isomer, unassigned) [Example 442]	human DGKζ (Homo sapiens, UniProt Q13574)	1.8
COC[C@@H]1CN(c2cc(=O)n(C)c3ccc(C#N)nc23)[C@@H](C)CN1C(C)c1ccc(OC(F)(F)F)cc1 (single isomer, unassigned) [Example 1163]	human DGKζ (Homo sapiens, UniProt Q13574)	7.5
CCC(c1ccc(OCCC2CC2)cc1)N1C[C@H](C)N(c2cc(=O)n(C)c3ccc(C#N)nc23)C[C@H]1C (single isomer, unassigned) [Example 1445]	human DGKζ (Homo sapiens, UniProt Q13574)	3.6
CC[C@H]1CN(C(C)c2ccc(OC(F)F)cc2)[C@H](C)CN1c1cc(=O)n(C)c2ccc(C#N)nc12 (single isomer, unassigned) [Example 1379]	human DGKζ (Homo sapiens, UniProt Q13574)	0.16
Cc1nc2ccc(C(C)N3C[C@H](C)N(c4cc(=O)n(C)c5ccc(C#N)nc45)C[C@H]3C)cc2s1 (single isomer, unassigned) [Example 1264]	human DGKζ (Homo sapiens, UniProt Q13574)	3.6

---

# TESTED_ON: human DGKζ (Homo sapiens)
# Construct: TVMV protease cleavage site (C); Hexa-His (C); made in house; host or cells: Sf9 insect cells (baculovirus, Bac-to-Bac)
# EXPERIMENT_SUMMARY: DGKζ LIPGLO assay (extruded liposome substrate), in vitro DGK inhibition
# Type: biochemical
# TEST_CONTEXT: DGKζ liposome (LIPGLO) assay; read-out: DGKz LIPGLO IC50
pIC50: −log10 of the molar value.

COMPOUND	COMPARATIVE_SIGN	pIC50
CC(c1ccc(C(F)(F)F)cc1)N1C[C@H](C)N(c2c(C#N)c(=O)n(C)c3ccc(C#N)nc23)C[C@H]1C (stereo partly shown)	<	3.60
C[C@@H]1CN(c2cc(=O)n(C)c3ccc(C#N)nc23)[C@@H](C)CN1C(c1ccc(F)cc1)c1cnn(C2CC2)c1 (single isomer, unassigned) [Example 726]	=	7.23
Cc1ccc(C(c2ccc(Cl)cc2)N2C[C@H](C)N(c3c(C#N)c(=O)n(C)c4ccc(C#N)nc34)C[C@H]2C)cc1 (stereo partly shown) [Example 825]	=	5.49
C[C@@H]1CN(c2c(C#N)c(=O)n(C)c3ccc(C#N)nc23)[C@@H](C)CN1C(c1ccc(F)cc1)c1ccns1 (single isomer, unassigned) [Example 855]	=	4.70
C[C@@H]1CN(c2c(C#N)c(=O)n(C)c3ccc(C#N)nc23)CCN1Cc1ccc(-c2ccccc2)cc1	=	3.96
C[C@@H]1CN(c2c(C#N)c(=O)n(C)c3ccc(C#N)nc23)[C@@H](C)CN1C(c1ccccc1)c1ccc(Cl)cc1 (stereo partly shown) [Example 835]	=	4.96
C[C@@H]1CN(c2c(C#N)c(=O)n(C)c3ccc(C#N)nc23)CCN1C(c1ccc(Cl)cc1)c1ncccc1F (stereo partly shown) [Example 913]	=	5.26
C[C@@H]1CN(c2c(C#N)c(=O)n(C)c3ccc(C#N)nc23)CCN1C(c1ccc(F)cc1)c1cocn1 (stereo partly shown) [Example 1022]	=	4.92
C[C@@H]1CN(c2cc(=O)n(C)c3ccc(C#N)nc23)[C@@H](C)CN1C(c1ccc(F)cc1)c1ncno1 (stereo partly shown)	=	4.21
Cc1ccc(C(c2ccc(Cl)cc2)N2CCN(c3c(C#N)c(=O)n(C)c4ccc(C#N)nc34)C[C@H]2C)cc1 (single isomer, unassigned) [Example 945]	=	5.03
C[C@@H]1CN(c2c(C#N)c(=O)n(C)c3ccc(C#N)nc23)CCN1C(c1ccc(F)cc1)c1ccc(Cl)cn1 (stereo partly shown) [Example 932]	=	5.92
C[C@@H]1CN(c2c(C#N)c(=O)n(C)c3ccc(C#N)nc23)CCN1C(c1ccc(F)cc1)c1ccccn1 (single isomer, unassigned) [Example 918]	=	6.42
CC(c1ccccn1)N1CCN(c2c(C#N)c(=O)n(C)c3ccc(C#N)nc23)C[C@H]1C (single isomer, unassigned) [Example 963]	=	3.74

---

# TESTED_ON: human DGKα (Homo sapiens)
# Construct: TVMV protease cleavage site (C); Hexa-His (C); made in house; host or cells: Sf9 insect cells (baculovirus, Bac-to-Bac)
# Sequence (P23743 with tags, fused parts or gaps): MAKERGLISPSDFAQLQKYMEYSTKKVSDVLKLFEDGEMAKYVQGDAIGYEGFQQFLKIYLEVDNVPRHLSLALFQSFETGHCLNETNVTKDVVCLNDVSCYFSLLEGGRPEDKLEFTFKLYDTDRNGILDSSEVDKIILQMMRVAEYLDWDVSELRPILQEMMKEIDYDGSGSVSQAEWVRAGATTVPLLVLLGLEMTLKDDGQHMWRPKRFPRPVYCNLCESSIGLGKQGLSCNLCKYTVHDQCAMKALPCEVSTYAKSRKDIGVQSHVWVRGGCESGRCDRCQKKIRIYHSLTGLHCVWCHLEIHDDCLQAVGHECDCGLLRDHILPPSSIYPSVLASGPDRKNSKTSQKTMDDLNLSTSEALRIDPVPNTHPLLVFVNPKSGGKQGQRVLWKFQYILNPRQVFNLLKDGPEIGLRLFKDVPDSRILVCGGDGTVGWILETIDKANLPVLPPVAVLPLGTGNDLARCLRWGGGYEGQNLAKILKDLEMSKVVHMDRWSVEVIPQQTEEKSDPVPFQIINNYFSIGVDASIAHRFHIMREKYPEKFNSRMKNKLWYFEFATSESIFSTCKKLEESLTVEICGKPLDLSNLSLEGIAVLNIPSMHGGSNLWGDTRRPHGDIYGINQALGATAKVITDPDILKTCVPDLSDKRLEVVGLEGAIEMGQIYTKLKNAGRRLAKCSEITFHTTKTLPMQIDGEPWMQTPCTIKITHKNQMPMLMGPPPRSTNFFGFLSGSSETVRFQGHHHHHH
# EXPERIMENT_SUMMARY: DGKα LIPGLO assay (extruded liposome substrate), in vitro DGK inhibition
# Assay type: biochemical
# TEST_CONTEXT: liposome (LIPGLO) assay; read-out: DGKa LIPGLO IC50

COMPOUND	IC50
C[C@@H]1CN(c2cc(=O)n(C)c3ccc(C#N)nc23)[C@@H](C)CN1C(c1ccc(F)cc1)c1cc(F)ccn1 (single isomer, unassigned) [Example 474]	260 nM
C[C@@H]1CN(c2c(F)c(=O)n(C)c3ccc(C#N)nc23)[C@@H](C)CN1C(c1ccc(F)cc1)c1ccc(C#N)cc1 (stereo partly drawn) [Example 327]	3200 nM
C[C@@H]1CN(c2cc(=O)n(C)c3ccc(C#N)nc23)[C@@H](C)CN1Cc1ccccc1F	34 nM

---

Recorded IC50, one value per entry.
# TESTED_ON: human DGKζ (Homo sapiens, UniProt Q13574)
# Construct: TVMV protease cleavage site (C); Hexa-His (C); made in house; host or cells: Sf9 insect cells (baculovirus, Bac-to-Bac)
# EXPERIMENT_SUMMARY: DGKζ LIPGLO assay (extruded liposome substrate), in vitro DGK inhibition
# Format: biochemical
# TEST_CONTEXT: DGKζ liposome (LIPGLO) assay; read-out: DGKz LIPGLO IC50
ASSAY_READOUT: IC50 (µM)

MOLECULE	TESTED_ON	OBSERVED_RESULT
C[C@@H]1CN(c2c(C#N)c(=O)n(C)c3ccc(C#N)nc23)CCN1C(c1ccc(F)cc1)c1cocn1 (stereo partly drawn) [Example 1023]	human DGKζ (Homo sapiens, UniProt Q13574)	13
COC(=O)c1cccc(C(C)N2C[C@H](C)N(c3c(C#N)c(=O)n(C)c4ccc(C#N)nc34)C[C@H]2C)c1 (single isomer, unassigned) [Example 795]	human DGKζ (Homo sapiens, UniProt Q13574)	160
C[C@@H]1CN(c2c(C#N)c(=O)n(C)c3ccc(C#N)nc23)CCN1Cc1cccc(OC(F)(F)F)c1 [Example 1008]	human DGKζ (Homo sapiens, UniProt Q13574)	7.1
COc1ncccc1C(c1ccc(F)cc1)N1CCN(c2c(C#N)c(=O)n(C)c3ccc(C#N)nc23)C[C@H]1C (single isomer, unassigned) [Example 895]	human DGKζ (Homo sapiens, UniProt Q13574)	2.7
CC(C)c1noc(C(c2ccc(F)cc2)N2C[C@H](C)N(c3cc(=O)n(C)c4ccc(C#N)nc34)C[C@H]2C)n1 (single isomer, unassigned) [Example 748]	human DGKζ (Homo sapiens, UniProt Q13574)	0.22
C[C@@H]1CN(c2c(C#N)c(=O)n(C)c3ccc(C#N)nc23)[C@@H](C)CN1C(c1ccc(F)cc1)c1cc(C(C)(C)C)on1 (single isomer, unassigned) [Example 867]	human DGKζ (Homo sapiens, UniProt Q13574)	7.9

---

# TESTED_ON: human DGKζ (Homo sapiens)
# Construct: TVMV protease cleavage site (C); Hexa-His (C); made in house; host or cells: Sf9 insect cells (baculovirus, Bac-to-Bac)
# EXPERIMENT_SUMMARY: DGKζ LIPGLO assay (extruded liposome substrate), in vitro DGK inhibition
# Format: biochemical
# TEST_CONTEXT: DGKζ liposome (LIPGLO) assay; read-out: DGKz LIPGLO IC50
pIC50: −log10 of the molar value.
Given measured pIC50, output condition met if it is greater than or equal to 6 and condition not met if not.

COMPOUND	CLASSIFICATION
CC(c1ccc(F)cc1)N1CCN(c2c(C#N)c(=O)n(C)c3ccc(C#N)nc23)C[C@H]1C (single isomer, unassigned) [Example 959]	condition not met
C[C@@H]1CN(c2c(C#N)c(=O)n(C)c3ccc(C#N)nc23)[C@@H](C)CN1C(c1ccc(F)cc1)c1cscn1 (single isomer, unassigned) [Example 857]	condition not met
CC(c1ccc(F)cc1)N1C[C@H](C)N(c2c(C#N)c(=O)n(C)c3ccc(C#N)nc23)C[C@H]1C (single isomer, unassigned) [Example 782]	condition not met
Cc1ccc(C(c2ccc(F)cn2)N2CCN(c3c(C#N)c(=O)n(C)c4ccc(C#N)nc34)C[C@H]2C)cc1 (stereo partly drawn) [Example 899]	condition not met
C[C@@H]1CN(c2cc(=O)n(C)c3ccc(C#N)nc23)[C@@H](C)CN1C(c1ccc(F)cc1)c1nc(C2CC2)co1 (stereo partly drawn) [Example 776]	condition met
C[C@@H]1CN(c2c(C#N)c(=O)n(C)c3ccc(C#N)nc23)[C@@H](C)CN1C(c1ccc(Cl)cc1)c1ncccc1F (single isomer, unassigned) [Example 819]	condition not met
Cc1ccc(C(c2ccc(Cl)cn2)N2CCN(c3c(C#N)c(=O)n(C)c4ccc(C#N)nc34)C[C@H]2C)cc1 (single isomer, unassigned) [Example 936]	condition not met
C[C@@H]1CN(c2c(C#N)c(=O)n(C)c3ccc(C#N)nc23)CCN1C(c1ccc(F)cc1)c1ccc(F)cc1F (single isomer, unassigned) [Example 947]	condition met
C[C@@H]1CN(c2c(C#N)c(=O)n(C)c3ccc(C#N)nc23)CCN1C(c1ccc(Cl)cc1)c1ccc(Cl)cn1 (stereo partly drawn) [Example 931]	condition not met
